Test: Phase 1 pharmacokinetics after single IV bolus, three-compartment model (Example 3)
Format: in vivo, human
Conditions: human, plasma, intravenous, 3 ug/kg, N=4, mean (SD); read-out: Vc (central volume of distribution)
MEASUREMENT NAME: Vd (L)
Dear colleague, please return just the value in L, with no unit written.

[Q] What does the record list as Vd for `CNC(=O)c1cnn(-c2nc(N)c3ncn([C@@H]4O[C@H](CO)[C@@H](O)[C@H]4O)c3n2)c1` ?
[A] 13.7

---

Experiment: Phase 1 pharmacokinetics after single IV bolus, three-compartment model (Example 3)
Format: in vivo, human
Conditions: human, plasma, intravenous, 30 ug/kg, N=3, mean; read-out: Vc (central volume of distribution)
MEASUREMENT NAME: Vd (L)
Dear colleague, please return just the value in L, with no unit written.

[Q] What does the record list as Vd for CNC(=O)c1cnn(-c2nc(N)c3ncn([C@@H]4O[C@H](CO)[C@@H](O)[C@H]4O)c3n2)c1 [Regadenoson] ?
[A] 15.7

---

Assay: Phase 1 pharmacokinetics after single IV bolus, three-compartment model (Example 3)
Type: in vivo, human
Conditions: human, plasma, intravenous, 10 ug/kg, N=4, mean (SD); read-out: Vc (central volume of distribution)
MEASUREMENT NAME: Vd (L)
Dear colleague, please return just the value in L, with no unit written.

[Q] What does the record list as Vd for `CNC(=O)c1cnn(-c2nc(N)c3ncn([C@@H]4O[C@H](CO)[C@@H](O)[C@H]4O)c3n2)c1` ?
[A] 17.9

---

Assay: Phase 1 pharmacokinetics after single IV bolus, three-compartment model (Example 3)
Type: in vivo, human
Conditions: human, plasma, intravenous, 1 ug/kg, N=3, mean (SD); read-out: Vc (central volume of distribution)
MEASUREMENT NAME: Vd (L)
Dear colleague, please return just the value in L, with no unit written.

[Q] What does the record list as Vd for `CNC(=O)c1cnn(-c2nc(N)c3ncn([C@@H]4O[C@H](CO)[C@@H](O)[C@H]4O)c3n2)c1` ?
[A] 9.84

---

Assay: Phase 1 pharmacokinetics after single IV bolus, three-compartment model (Example 3)
Format: in vivo, human
Conditions: human, plasma, intravenous, 20 ug/kg, N=8, mean; read-out: Vc (central volume of distribution)
MEASUREMENT NAME: Vd
Record the result as a number with its unit.

[Q] What does the record list as Vd for CNC(=O)c1cnn(-c2nc(N)c3ncn([C@@H]4O[C@H](CO)[C@@H](O)[C@H]4O)c3n2)c1 [Regadenoson] ?
[A] 12.5 L
